Target: human ether-à-go-go-related gene (hERG) potassium channel (human)
Assay: primary screen, population patch clamp on CHO cells stably expressing hERG; higher = less effect of the substance
Hit rate of the full screen: of about 310,000 compounds, about 14,000 (4.5%) showed an effect of 50% or more. Effects have a minus sign here. Only a selection was taken, and strong results are over-represented in it overall.
For each record, write down the corresponding hERG current change (%, negative = inhibition) at 10uM.
Numbers only, in %.

CC(C)C(=O)Nc1nc2ccc(S(C)(=O)=O)cc2s1 = 5.14
Cc1cc2cc(C#N)c(NCCNC(=S)NCCCN3CCOCC3)nc2cc1C = -24.5
CC(=O)Nc1c(C(=O)C2CC2)oc2ccccc12 = -7

Lookup: Indicate the recorded hERG current change (%, negative = inhibition) at 10uM value for this molecule: "Clc1ccc(-c2csc(N3CCc4ccccc4C3)n2)cc1"
Found: 14.3

----------
Target: human ether-à-go-go-related gene (hERG) potassium channel (human, UniProt Q12809)
Sequence (Q12809 whole entry, looked up): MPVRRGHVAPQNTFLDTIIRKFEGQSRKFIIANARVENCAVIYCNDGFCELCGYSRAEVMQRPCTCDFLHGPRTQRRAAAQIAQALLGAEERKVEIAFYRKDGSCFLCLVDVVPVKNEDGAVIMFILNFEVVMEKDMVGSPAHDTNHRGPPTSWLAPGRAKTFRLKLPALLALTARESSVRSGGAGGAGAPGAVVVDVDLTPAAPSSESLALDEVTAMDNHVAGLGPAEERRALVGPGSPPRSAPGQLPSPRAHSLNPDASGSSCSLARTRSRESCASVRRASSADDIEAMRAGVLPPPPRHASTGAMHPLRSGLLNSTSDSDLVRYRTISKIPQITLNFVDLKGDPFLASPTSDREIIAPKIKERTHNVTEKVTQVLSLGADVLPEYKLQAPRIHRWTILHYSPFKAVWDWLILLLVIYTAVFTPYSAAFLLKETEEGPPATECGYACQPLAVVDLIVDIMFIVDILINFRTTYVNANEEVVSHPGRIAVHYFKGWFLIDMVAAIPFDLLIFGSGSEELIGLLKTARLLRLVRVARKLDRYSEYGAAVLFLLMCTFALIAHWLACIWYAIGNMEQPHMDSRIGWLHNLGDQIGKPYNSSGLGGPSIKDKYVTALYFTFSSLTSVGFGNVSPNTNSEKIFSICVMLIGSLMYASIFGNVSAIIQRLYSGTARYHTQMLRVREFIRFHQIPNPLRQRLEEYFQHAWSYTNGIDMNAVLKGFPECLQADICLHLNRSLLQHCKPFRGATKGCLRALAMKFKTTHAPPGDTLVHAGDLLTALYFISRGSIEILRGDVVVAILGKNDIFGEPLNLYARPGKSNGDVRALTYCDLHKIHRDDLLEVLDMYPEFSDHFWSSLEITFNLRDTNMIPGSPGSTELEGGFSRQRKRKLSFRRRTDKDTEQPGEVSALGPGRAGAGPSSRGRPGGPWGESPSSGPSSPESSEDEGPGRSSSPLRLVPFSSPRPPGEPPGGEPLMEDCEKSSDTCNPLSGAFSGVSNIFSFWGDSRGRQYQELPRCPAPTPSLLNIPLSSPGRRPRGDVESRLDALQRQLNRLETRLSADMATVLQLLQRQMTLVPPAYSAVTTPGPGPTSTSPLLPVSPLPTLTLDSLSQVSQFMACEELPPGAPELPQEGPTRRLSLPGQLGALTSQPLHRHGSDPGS
Test: primary screen, population patch clamp on CHO cells stably expressing hERG; higher = less effect of the substance
Hit rate of the full screen: of about 310,000 compounds, about 14,000 (4.5%) showed an effect of 50% or more. Effects have a minus sign here. The entries come from a sample that favours strong results as a whole.
Kindly supply the reported hERG current change (%, negative = inhibition) at 10uM values for the records listed here.
Numbers only, in %.

Solved cases (2 shown):
CN(CC(=O)Nc1cccc(F)c1)C(=O)c1ccc(N2CCCC2)c([N+](=O)[O-])c1 = -46.7
COc1cccc(NC(=O)CN(C)C(=O)c2ccc3c(c2)CC(c2ccccc2)OC3=O)c1 (stereo not shown) = -66.9

Batch of 2 compounds: report hERG current change (%, negative = inhibition) at 10uM for each.
1. O=C(Oc1c(-c2ccccc2)c(=O)n2c3c(cccc13)CC2)c1ccco1
2. Cc1cccc(Nc2nc3c(c(=O)n(C)c(=O)n3C)n2CC(O)CO)c1 (stereo not shown)

Found:
1. -62
2. -0.943

----------
Target: human ether-à-go-go-related gene (hERG) potassium channel (human, UniProt Q12809)
Assay: primary screen, population patch clamp on CHO cells stably expressing hERG; higher = less effect of the substance
About 14,000 (4.5%) of roughly 310,000 compounds showed an effect of 50% or more. The effect is printed as a negative number. What follows is part of a selection rich in strong results, with near analogues and random picks from the rest.
Test readout: hERG current change (%, negative = inhibition) at 10uM (%)
Answers are plain numbers, in %.

O=C(Nc1cccnc1)c1ccc(Cl)c(Cl)c1 = 10.3
CNC(=S)NC1CC2CCC(C1)N2Cc1ccccc1 (stereo not drawn) = -16.5

Moving on to another compound below.
Lookup: Find the measured hERG current change (%, negative = inhibition) at 10uM of "CCN(CC)c1ccc(NC(=O)c2cccnc2)c(C)c1" with human ether-à-go-go-related gene (hERG) potassium channel (human, UniProt Q12809) as test system.
Found: 26.9

----------
Target: human ether-à-go-go-related gene (hERG) potassium channel (human, UniProt Q12809);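 also: peak tail current of the secondary pulse compared with the same well before compound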
Experiment: primary screen, population patch clamp on CHO cells stably expressing hERG; higher = less effect of the substance
Hit rate of the full screen: of about 310,000 compounds, about 14,000 (4.5%) showed an effect of 50% or more. The effect is printed as a negative number. The sample holds strong results, similar compounds and a random draw of the others, so the mix is not that of the screen.
Test readout: hERG current change (%, negative = inhibition) at 10uM (%)
Numbers only, in %.

O=C(/C=C/c1cccc(Br)c1)NC1CCN(Cc2ccccc2)CC1 = -71.1
COC(=O)COc1ccc(C2Nc3c(Cl)ccc(C(=O)O)c3C3C=CCC32)cc1 (stereo not drawn) = 12.9
C[C@H](NC(=O)[C@@H]1CSC2c3ccccc3C(=O)N21)C(=O)NC1CCCC1 (stereo partly drawn) = 10.5

List reported hERG current change (%, negative = inhibition) at 10uM for each of these compounds:
1. O=C(Nc1cccc(F)c1)NC1CCN(Cc2ccccc2)CC1
2. CN1CCC(NC(=O)Nc2cccc(C(F)(F)F)c2)CC1
3. CCCOc1ccc(N2C(=O)CC(N(CCc3ccc(OC)cc3)C(=O)c3cccc(F)c3)C2=O)cc1 (stereo not drawn)

Found:
[-56.4, -0.705, -8.44]

Look up hERG current change (%, negative = inhibition) at 10uM for the entries below, preserving their order.
1. CCOc1ccc(CCNC(=O)C2CCCN(S(=O)(=O)N3CCOCC3)C2)cc1OCC (stereo not drawn)
2. S=C(Nc1ccc(Br)cc1Cl)NC1CCN(Cc2ccccc2)CC1
3. O=C(Nc1cccc(C(F)(F)F)c1)NC1CCCCC1
4. Cc1cc(NC(=O)CSc2nc(CC(C)(C)C)nc3c2c(=O)n(C)c(=O)n3C)no1
5. CCCOc1ccc(N2C(=O)CC(N(CCc3ccc(OC)cc3)C(=O)c3ccccc3)C2=O)cc1 (stereo not drawn)
6. COc1ccc(/C=C/C(=O)NC2CCN(Cc3ccccc3)CC2)cc1OC

Found:
[0.332, -2.37, -3.18, 4.05, -10.6, -29]

----------
Target: human ether-à-go-go-related gene (hERG) potassium channel (human, UniProt Q12809);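 also: peak tail current of the secondary pulse compared with the same well before compound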
Assay: primary screen, population patch clamp on CHO cells stably expressing hERG; higher = less effect of the substance
About 14,000 (4.5%) of roughly 310,000 compounds showed an effect of 50% or more. Effects have a minus sign here. The full list was thinned out, with strong results kept by preference.
Test readout: hERG current change (%, negative = inhibition) at 10uM (%)
Numbers only, in %.

Dear reader, for each entry below, please note its hERG current change (%, negative = inhibition) at 10uM.
1. CC1(C)CC(=O)CC2(C1)NCC(c1ccccc1Cl)c1c2[nH]c2ccccc12.Cl (stereo not drawn)
2. CCOC(=O)c1ccc(N=Cc2nc3ccccc3n2C)cc1
3. COc1ccc(C(CNC(=O)COc2ccc(F)cc2Br)N2CCCC2)cc1 (stereo not drawn)
4. CCNC(=O)NC(=O)COC(=O)CCc1nc(=O)c2ccccc2n1C
5. Cc1ccccc1/C=N/n1c(-c2ccccn2)n[nH]c1=S
6. COc1ccc(C(CNC(=O)COc2ccc([N+](=O)[O-])cc2)N2CCCCC2)cc1 (stereo not drawn)

Found:
1: -51.4; 2: 7.61; 3: -64.5; 4: 4.87; 5: 14.7; 6: -69.9

----------
Biological target: human ether-à-go-go-related gene (hERG) potassium channel (human, UniProt Q12809);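 also: peak tail current of the secondary pulse compared with the same well before compound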
Experiment: primary screen, population patch clamp on CHO cells stably expressing hERG; higher = less effect of the substance
About 14,000 (4.5%) of roughly 310,000 compounds showed an effect of 50% or more. Effects have a minus sign here. This excerpt belongs to a sample that is enriched for strong results.
Test readout: hERG current change (%, negative = inhibition) at 10uM (%)
Answers are plain numbers, in %.

Worked cases, answers included:
CC(C)=CCN1CCN(Cc2ccc(C#CC(C)(C)O)s2)CC1CCO (stereo not shown) = -1.88
CCOC(=O)CCNC(=O)N1CCCC(C(=O)c2cc(C)c(OC)c(C)c2)C1 (stereo not shown) = 5.81
Cc1ccccc1NC(=O)CSc1nnc(-c2ccoc2C)n1CCc1ccccc1 = -59.6
Cc1occc1-c1nnc(SCC(=O)Nc2ccc(F)cc2)n1Cc1ccccc1 = -49.4
COC(=O)c1ccccc1NC(=O)NCc1ccccc1 = -3.24
COc1ccccc1NC(=O)CSc1nnc(-c2ccoc2C)n1C = -1.59

As a next step, examine the molecule that follows.
Lookup: Return value of hERG current change (%, negative = inhibition) at 10uM for input "Cc1cccc(C)c1NC(=O)CSc1nnc(-c2ccoc2C)n1CCc1ccccc1" , no commentary.
Found: -46.3

----------
Biological target: human ether-à-go-go-related gene (hERG) potassium channel (human);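 also: peak tail current of the secondary pulse compared with the same well before compound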
Assay: primary screen, population patch clamp on CHO cells stably expressing hERG; higher = less effect of the substance
About 14,000 (4.5%) of roughly 310,000 compounds showed an effect of 50% or more. The effect is printed as a negative number. This excerpt belongs to a sample that is enriched for strong results.
Test readout: hERG current change (%, negative = inhibition) at 10uM

Observe how each entry below is paired with its result.
CN(c1ccccc1)S(=O)(=O)c1ccc(Cl)c(C(=O)Nc2ccncc2)c1 = -5.35%
CCN(CC)CCNC(=O)c1cc(-c2ccc(Br)s2)nc2ccccc12 = -9.2%
COc1ccccc1N(C)S(=O)(=O)c1ccc(C(=O)Nc2ccncc2)cc1 = -28.6%
O=C(Nc1cccnc1Cl)c1cc2ccccc2o1 = 6.92%
CCOC(=O)C1CCN(C(=O)CN2C(=O)CSc3ccc(S(=O)(=O)N4CCOCC4)cc32)CC1 = -22.6%
CCn1c(=O)cc(OCC(=O)NCCC(C)C)c2ccccc21 = 0.0582%
COc1ccc(/C=C/C(=O)NC(C)(C)C)cc1S(=O)(=O)N1CCOCC1 = -15.2%
CN1CCN(c2ccc(Cl)cc2NC(=O)c2ccc(S(=O)(=O)N(C)C)cc2)CC1 = 1.58%

Lab note: each molecule below needs its hERG current change (%, negative = inhibition) at 10uM filled in.
1. COc1ccc(CCNC(=O)c2cc(-c3ccco3)nc3ccccc23)cc1
2. CCN(CC)S(=O)(=O)c1cc(C(=O)Nc2cc(Cl)ccc2N2CCN(C)CC2)ccc1Cl
3. CN1CCN(c2ccc(Cl)cc2NC(=O)c2cccc(S(=O)(=O)N(C)C)c2)CC1

Found:
2.98%
-53.5%
-36.9%
